targetUnderTest: T1, human MUC1 on cells (DA3-TM transfectants and human cancer cell lines SKOV3, COLO357, HT29 and others) (human, UniProt P15941 24-1255)
T1 construct: also called MUC1-SEA; surface MUC1
T1 sequence (P15941 24-1255 limits assumed): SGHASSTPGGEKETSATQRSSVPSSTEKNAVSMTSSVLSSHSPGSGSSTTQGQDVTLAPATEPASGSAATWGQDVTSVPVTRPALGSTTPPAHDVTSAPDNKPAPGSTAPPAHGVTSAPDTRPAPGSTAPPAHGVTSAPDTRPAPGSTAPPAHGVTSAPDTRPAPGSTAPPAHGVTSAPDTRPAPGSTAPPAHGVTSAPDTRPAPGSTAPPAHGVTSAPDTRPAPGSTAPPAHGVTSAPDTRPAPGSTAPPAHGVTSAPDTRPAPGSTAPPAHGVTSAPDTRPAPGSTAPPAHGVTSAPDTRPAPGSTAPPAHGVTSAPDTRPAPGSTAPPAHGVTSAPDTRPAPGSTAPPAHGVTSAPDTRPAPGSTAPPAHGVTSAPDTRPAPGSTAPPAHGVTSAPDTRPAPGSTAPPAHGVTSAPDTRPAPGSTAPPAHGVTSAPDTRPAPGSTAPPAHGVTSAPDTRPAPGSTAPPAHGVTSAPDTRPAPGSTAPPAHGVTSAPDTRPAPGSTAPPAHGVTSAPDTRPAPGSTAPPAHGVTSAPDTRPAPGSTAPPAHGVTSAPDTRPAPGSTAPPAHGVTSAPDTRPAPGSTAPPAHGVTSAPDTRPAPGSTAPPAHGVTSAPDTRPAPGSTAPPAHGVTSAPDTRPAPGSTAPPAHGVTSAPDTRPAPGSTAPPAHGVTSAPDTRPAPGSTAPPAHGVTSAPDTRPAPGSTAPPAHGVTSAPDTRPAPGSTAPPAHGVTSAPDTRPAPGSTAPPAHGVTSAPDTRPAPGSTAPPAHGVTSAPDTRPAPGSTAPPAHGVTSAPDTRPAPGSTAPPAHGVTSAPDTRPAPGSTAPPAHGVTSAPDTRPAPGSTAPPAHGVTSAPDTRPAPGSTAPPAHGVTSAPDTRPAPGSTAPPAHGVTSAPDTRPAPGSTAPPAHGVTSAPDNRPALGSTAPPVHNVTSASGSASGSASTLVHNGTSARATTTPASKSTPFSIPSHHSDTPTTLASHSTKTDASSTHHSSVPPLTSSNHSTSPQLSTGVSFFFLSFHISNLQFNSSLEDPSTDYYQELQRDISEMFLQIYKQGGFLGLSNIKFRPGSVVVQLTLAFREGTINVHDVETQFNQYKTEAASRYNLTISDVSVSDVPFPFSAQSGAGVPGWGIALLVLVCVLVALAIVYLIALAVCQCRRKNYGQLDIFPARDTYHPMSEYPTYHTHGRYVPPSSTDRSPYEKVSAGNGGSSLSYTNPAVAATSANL
assayExplanation: flow cytometry, dose-dependent binding on MUC1 positive DA3-TM cells
parameter: pKd
The quantity pKd is defined as the negative base-10 logarithm of the molar concentration.

Per the record, HM4 LM2 variant of humanized anti-MUC1 antibody SP66 (antibody, V domains shown, Humanized IgG expressed in CHO cells; only variable domains tied to the variant) VH: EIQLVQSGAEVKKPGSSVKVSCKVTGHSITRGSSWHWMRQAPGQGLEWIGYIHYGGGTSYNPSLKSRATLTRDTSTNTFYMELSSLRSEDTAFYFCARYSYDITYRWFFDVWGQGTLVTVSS VL: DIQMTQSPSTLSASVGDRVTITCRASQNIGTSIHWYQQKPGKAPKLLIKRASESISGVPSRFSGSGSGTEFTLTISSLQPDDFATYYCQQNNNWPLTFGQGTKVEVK has pKd of 8.68

Per the record, HM5 LM3 variant of humanized anti-MUC1 antibody SP66 (antibody, V domains shown, Humanized IgG expressed in CHO cells; only variable domains tied to the variant) VH: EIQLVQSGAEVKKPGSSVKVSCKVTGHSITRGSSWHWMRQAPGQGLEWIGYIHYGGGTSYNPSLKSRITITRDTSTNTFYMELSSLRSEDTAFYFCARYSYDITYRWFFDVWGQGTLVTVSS VL: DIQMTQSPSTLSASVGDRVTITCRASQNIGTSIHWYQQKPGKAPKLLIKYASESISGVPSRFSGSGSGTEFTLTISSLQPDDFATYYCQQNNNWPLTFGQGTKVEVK has pKd of 9.05
